Taken from ChEMBL document CHEMBL5303304.

tested on: Fibroblast; assay: Incucyte cell viability with human fibroblast; assay type: toxicity, cell-based; settings: 24 h, 10 µM, compound concentration 10 uM, replicate number 2; also: unitless GR value; below 1 slowed growth and below 0 cell loss
Please note: 1 applies when Growth Rate is 0.9 or greater, and 0 applies otherwise.

{"molecule": "CCN(C(=O)c1cc(F)ccc1Oc1cncnc1N1CC2(CCN(C[C@H]3CC[C@H](NS(=O)(=O)CC)CC3)CC2)C1)C(C)C [REVUMENIB]", "classification": 1}
{"molecule": "CN(C)[C@H]1CCc2nc(NC(=O)c3cccc(Cn4cc(-c5ccc(C#N)cc5)cn4)c3)sc2C1.O=C(O)C(F)(F)F", "classification": 0}
{"molecule": "CN[C@@H](C)C/C=C/c1cncc(OC(C)C)c1 [ISPRONICLINE]", "classification": 0}
{"molecule": "C[C@H](C[C@H](N)C(=O)O)C(=O)O [2S,4R-4-METHYLGLUTAMATE]", "classification": 1}
{"molecule": "CC1(C)Cc2nc(C3CCCC3)c([C@@H](F)c3ccc(C(F)(F)F)cc3)c(C3CCCCC3)c2[C@@H](O)C1", "classification": 1}
{"molecule": "Cl.NC(=O)c1ccccc1Nc1nc(-c2ccc(N3CCOCC3)cc2)cc2ncccc12", "classification": 0}

* * *

test system: HEK-293T; assay: Incucyte cell viability with HEK293T; assay type: toxicity, cell-based; conditions: human, 24 h, 10 µM, compound concentration 10 uM, replicate number 1; also: unitless GR value; below 1 slowed growth and below 0 cell loss
observable: Growth Rate

{"compound": "CN[C@@H](C)C/C=C/c1cncc(OC(C)C)c1 [ISPRONICLINE]", "numeric.value": 0.28}
{"compound": "O=C(Nc1ccc(N2CCC(C(=O)N3CCOCC3)CC2)cc1)c1cnc(Oc2ccccc2)nc1", "numeric.value": 0.95}
{"compound": "N[C@H](C(=O)O)[C@@H]1CC(Cl)=NO1 [ACIVICIN]", "numeric.value": 0.43}
{"compound": "CC(=O)O[C@H]1C(=O)[C@@]2(C)[C@H]([C@H](OC(=O)c3ccccc3)[C@]3(O)C[C@H](OC(=O)[C@H](O)[C@@H](NC(=O)c4ccccc4)c4ccccc4)C(C)=C1C3(C)C)[C@]1(OC(C)=O)CO[C@@H]1C[C@@H]2O [PACLITAXEL]", "numeric.value": 0.05}
{"compound": "CCNc1ccc(-c2nn(-c3ccccc3C)c3c2C(C)Cc2nc(NC(=O)OC)sc2-3)cn1.O=C(O)C(F)(F)F (stereo not drawn)", "numeric.value": -0.1}
{"compound": "O=C(Nc1ccccc1Br)N[C@@H]1CCN(c2ccc(C(F)(F)F)cn2)C1 [SB-705498]", "numeric.value": 0.31}
{"compound": "O=C(O)Cc1cc(I)c(Oc2ccc(O)c(I)c2)c(I)c1 [TIRATRICOL]", "numeric.value": 1}
{"compound": "Cl.O=C1c2cccc3c2[C@H](CCC3)CN1[C@@H]1CN2CCC1CC2 [PALONOSETRON HYDROCHLORIDE]", "numeric.value": 0.34}

* * *

test system: HEK-293T; experiment: Incucyte cell viability with HEK293T; format: toxicity, cell-based; conditions: human, 24 h, 10 µM, compound concentration 10 uM, replicate number 1; also: unitless GR value; below 1 slowed growth and below 0 cell loss

{"compound": "Cl.O=S(=O)(c1cccc2c(I)cccc12)N1CCCNCC1", "Growth Rate": 0.89}
{"compound": "Cc1onc(-c2ccc(F)cc2)c1COc1ccc(C(=O)N2CCS(=O)(=O)CC2)cn1", "Growth Rate": 0.97}
{"compound": "CC(C)(C)c1cnc(CSc2cnc(NC(=O)C3CCN(CC(=O)NCCOCCOCCOCCNc4cccc5c4C(=O)N(C4CCC(=O)NC4=O)C5=O)CC3)s2)o1 (stereo not given)", "Growth Rate": -0.29}
{"compound": "CC[C@@]1(c2ccccc2)NC(=O)N(Cc2ccccc2)C1=O", "Growth Rate": 0.84}
{"compound": "CN(C)CC#Cc1ccc2[nH]c3c(c2c1)-c1nc(N)ncc1CCC3", "Growth Rate": 0.12}
{"compound": "C=CC(=O)Nc1ccc(C(=O)Nc2n[nH]c3c2CN(C(=O)N[C@H](CN(C)C)c2ccccc2)C3(C)C)cc1", "Growth Rate": 0.03}
{"compound": "COc1cc(Cl)c(C(=O)N[C@@H](CN[C@H]2CC[C@@H](N)CC2)Cc2ccc(C#N)cc2)cc1-c1ccc(CN[C@H](C)c2ccc(C)cc2)o1", "Growth Rate": -0.42}
{"compound": "CC(=O)c1ccc2c(c1)/C(=C(/NC1CCN(C)CC1)c1ccc3c(c1)OCO3)C(=O)N2", "Growth Rate": -0.37}
{"compound": "C=CC(=O)Nc1cc(-c2nn(C3CCC(N4CCN(C(C)=O)CC4)CC3)c3ncnc(N)c23)ccc1Oc1ccccc1 (stereo not given)", "Growth Rate": -0.31}
{"compound": "CC(C)(O)C(=O)N1CCN(c2ccc(C(F)(F)F)c(C3=C(c4c[nH]c5ccccc45)C(=O)NC3=O)c2)CC1", "Growth Rate": 0.61}
{"compound": "CNc1nc(Nc2ccc(C(=O)N3CCOCC3)cc2OC)ncc1Cl", "Growth Rate": 0.92}
{"compound": "CC1(C)OC(=O)c2ccc(Nc3ncc(-c4nnco4)c(N[C@H](CO)c4ccccc4)n3)cc21", "Growth Rate": 0.09}
{"compound": "COc1c(-c2cn(C3CCC(=O)NC3=O)nn2)csc1C(=O)N1CCCC1 (stereo not given)", "Growth Rate": 0.9}
{"compound": "CC(C)(C)S(=O)(=O)c1ccc2nccc(Nc3n[nH]c4ccc(F)cc34)c2c1", "Growth Rate": -0.13}
{"compound": "CCn1ccc(Nc2ncc3c(n2)-c2c(nn(C)c2-c2ccc(-c4cnn(C)c4)cc2Cl)CC3)n1", "Growth Rate": -0.24}
{"compound": "CC(C)(O)[C@H](F)CN1Cc2cc(NC(=O)c3cnn4cccnc34)c(N3CCOCC3)cc2C1=O", "Growth Rate": 0.96}
{"compound": "COc1ccc(-c2cc3c(C)nc(N)nc3n([C@H]3CC[C@H](OCCO)CC3)c2=O)cn1", "Growth Rate": -0.14}
{"compound": "CNC(=O)COc1cc2cc(Nc3nc(N4CCC(C(=O)N(C)C)CC4)ncc3Cl)cc(OC)c2n(C)c1=O", "Growth Rate": 0.67}
{"compound": "CC(C)c1ccc(/C=N/NC(=O)c2ccc(O)cc2)cc1", "Growth Rate": 0.81}
{"compound": "CS(=O)(=O)c1ccc(-c2cnc(N)c(C(=O)Nc3ccccc3)n2)cc1", "Growth Rate": 0.07}
{"compound": "COC(=O)c1ccc2c(c1)NC(=O)/C2=C(\\Nc1ccc(-c2nccn2C)cc1)c1ccccc1", "Growth Rate": -0.09}
{"compound": "CC(C)C[C@H](NC(=O)c1cc2ccccc2s1)C(=O)N1CCN(C(=O)[C@H](CO)NS(=O)(=O)c2ccc(Cl)cc2Cl)CC1", "Growth Rate": 0.78}
{"compound": "CC(C)(c1ccc(OCc2cccc(COc3ccc(C(=N)N)cc3)c2)cc1)c1ccc(O[C@@H]2O[C@H](C(=O)O)[C@@H](O)[C@H](O)[C@H]2O)cc1.O=C(O)C(F)(F)F", "Growth Rate": 1}
{"compound": "CC(C)S(=O)(=O)c1ccccc1Nc1nc(N[C@@H]2CCCN(CCCCCCCNC(=O)COc3cccc4c3C(=O)N(C3CCC(=O)NC3=O)C4=O)C2)ncc1Cl (stereo not given in full)", "Growth Rate": -0.24}
{"compound": "c1ccc2c(c1)SCc1c-2[nH]c2ccccc12", "Growth Rate": -0.37}
{"compound": "CCn1cnc2c(-c3ccc(F)c(-c4ccc(S(=O)(=O)CC)cc4OC)c3)cnnc21", "Growth Rate": -0.32}
{"compound": "Cc1cc(C)cc(C(=O)NOCCCCCC(=O)NO)c1", "Growth Rate": 0.14}
{"compound": "c1cnc2cc3c(cc2n1)[C@@H]1CNC[C@H]3C1", "Growth Rate": 0.99}
{"compound": "N=C(N)Nc1cc(C2CCNCC2)cc(C(F)(F)F)c1.O=C(O)C(F)(F)F.O=C(O)C(F)(F)F", "Growth Rate": 0.96}
{"compound": "Cc1cc(-c2cc3ncccc3c(OC[C@H]3CCCNC3)n2)ccc1N(C)C.O=C(O)C(F)(F)F", "Growth Rate": -0.25}
{"compound": "CCN1C(=O)c2cc(C)ccc2N(C)c2ncccc21", "Growth Rate": 0.65}
{"compound": "O=C1COc2cc(C(=O)N(Cc3ccc(C(=O)Nc4ccncn4)cc3)C3CC3)ccc2N1", "Growth Rate": 0.95}
{"compound": "CCc1nc(C2CCC2)n2nc(-c3ccccc3)[nH]c(=O)c12", "Growth Rate": 0.75}
{"compound": "CC(=O)c1ccc2c(c1)/C(=C(/Nc1cccc(C#N)c1)c1ccc3c(c1)OCCO3)C(=O)N2", "Growth Rate": -0.16}
{"compound": "Nc1ccc(S(=O)(=O)Nc2ccnn2-c2ccccc2)cc1", "Growth Rate": 0.45}
